FYI, the data here is from patent US20090088439A1.

target_or_system: GABABR1a/GABABR2 heterodimer (Homo sapiens, UniProt O75899+Q9UBS5)
Construct: membrane preparation
Sequence (Q9UBS5 15-961 limits assumed): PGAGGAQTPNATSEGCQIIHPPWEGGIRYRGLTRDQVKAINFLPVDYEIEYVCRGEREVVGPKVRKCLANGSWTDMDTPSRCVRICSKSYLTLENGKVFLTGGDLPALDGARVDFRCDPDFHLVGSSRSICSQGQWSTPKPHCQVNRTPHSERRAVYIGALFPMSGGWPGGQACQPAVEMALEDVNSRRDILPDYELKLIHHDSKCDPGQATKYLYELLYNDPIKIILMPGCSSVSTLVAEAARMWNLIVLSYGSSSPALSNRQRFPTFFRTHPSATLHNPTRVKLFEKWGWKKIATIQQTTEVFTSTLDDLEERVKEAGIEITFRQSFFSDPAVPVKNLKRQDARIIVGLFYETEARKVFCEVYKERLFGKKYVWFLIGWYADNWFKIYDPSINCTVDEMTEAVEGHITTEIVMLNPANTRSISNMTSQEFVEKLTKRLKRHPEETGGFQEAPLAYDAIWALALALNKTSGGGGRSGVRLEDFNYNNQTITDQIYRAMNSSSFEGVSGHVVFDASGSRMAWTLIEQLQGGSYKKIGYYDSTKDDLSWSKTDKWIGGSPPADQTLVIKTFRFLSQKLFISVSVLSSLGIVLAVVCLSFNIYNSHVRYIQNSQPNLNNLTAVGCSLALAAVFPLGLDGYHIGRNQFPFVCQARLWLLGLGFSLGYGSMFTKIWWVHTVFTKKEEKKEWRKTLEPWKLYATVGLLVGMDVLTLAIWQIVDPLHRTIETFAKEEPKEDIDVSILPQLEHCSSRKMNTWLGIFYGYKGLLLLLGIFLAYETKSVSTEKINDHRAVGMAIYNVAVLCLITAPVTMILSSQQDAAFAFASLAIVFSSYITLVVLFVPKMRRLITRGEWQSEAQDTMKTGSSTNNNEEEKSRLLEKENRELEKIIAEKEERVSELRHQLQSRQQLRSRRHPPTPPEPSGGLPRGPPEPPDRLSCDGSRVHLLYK
Sequence (O75899 42-941): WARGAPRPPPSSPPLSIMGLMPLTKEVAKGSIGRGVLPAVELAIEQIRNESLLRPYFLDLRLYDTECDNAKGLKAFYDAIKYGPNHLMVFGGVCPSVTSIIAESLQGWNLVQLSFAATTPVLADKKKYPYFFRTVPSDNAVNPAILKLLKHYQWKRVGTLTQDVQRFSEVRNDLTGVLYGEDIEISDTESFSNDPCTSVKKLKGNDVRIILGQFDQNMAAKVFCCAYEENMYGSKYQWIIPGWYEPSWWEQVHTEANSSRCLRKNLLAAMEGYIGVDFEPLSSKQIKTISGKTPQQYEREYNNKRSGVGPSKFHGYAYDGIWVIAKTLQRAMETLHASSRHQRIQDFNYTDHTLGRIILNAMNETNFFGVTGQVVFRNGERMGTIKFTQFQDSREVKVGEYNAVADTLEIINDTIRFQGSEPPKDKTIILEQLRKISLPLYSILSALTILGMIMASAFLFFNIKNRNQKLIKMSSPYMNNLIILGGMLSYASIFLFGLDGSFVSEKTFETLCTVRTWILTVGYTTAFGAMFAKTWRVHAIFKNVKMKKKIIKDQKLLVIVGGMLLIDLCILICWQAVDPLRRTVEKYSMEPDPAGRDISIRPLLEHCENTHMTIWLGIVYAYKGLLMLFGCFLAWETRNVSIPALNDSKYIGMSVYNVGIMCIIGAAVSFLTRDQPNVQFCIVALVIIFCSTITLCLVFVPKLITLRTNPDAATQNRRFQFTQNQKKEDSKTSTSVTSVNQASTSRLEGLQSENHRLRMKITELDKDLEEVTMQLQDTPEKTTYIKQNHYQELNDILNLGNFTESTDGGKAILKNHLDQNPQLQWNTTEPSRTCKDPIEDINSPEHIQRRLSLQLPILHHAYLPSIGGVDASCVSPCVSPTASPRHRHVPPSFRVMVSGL
experiment_summary: GTPγS35 radioligand filtration-binding assay for determination of agonist potency
setup_conditions: membranes of CHO K1 Flp-In cells expressing GABABR1a/GABABR2; compound alone
measurement_type: EC50 (µM)

- molecule: "O=c1c2nc3c(nc2n(CCn2cccc2)c(=O)n1Cc1ccc(Cl)cc1)CCCC3 [Example 17]"
  measure_unit: "µM"
  EC50: 1.6
- molecule: "CCCn1c(=O)n(Cc2ccc(Cl)cc2)c(=O)c2nc3c(nc21)CCC3 [Example 22]"
  measure_unit: "µM"
  EC50: 3.7
- molecule: "CCCn1c(=O)n(Cc2ccc(Cl)cc2)c(=O)c2nc3c(nc21)C(C)CC3C (mixture of isomers) [Example 12]"
  measure_unit: "µM"
  EC50: 1.4
- molecule: "CC(C)(C)CCn1c(=O)n(Cc2ccc(Cl)cc2)c(=O)c2nccnc21 [Example 6]"
  measure_unit: "µM"
  EC50: 4.7
- molecule: "CCCn1c(=O)n(Cc2ccc(Cl)cc2)c(=O)c2nc3c(nc21)CCCC3 [Example 20]"
  measure_unit: "µM"
  EC50: 0.8
- molecule: "N#Cc1cccc(Cn2c(=O)n(Cc3ccc(Cl)cc3)c(=O)c3nc4c(nc32)CCCC4)c1 [Example 16]"
  measure_unit: "µM"
  EC50: 1

A. CCCn1c(=O)n(Cc2ccc(Cl)cc2)c(=O)c2c1nc1c([n+]2[O-])CCCC1 [Example 21]
B. C=CCn1c(=O)n(Cc2ccc(Cl)cc2)c(=O)c2nc3c(nc21)CCCC3 [Example 14]
Could you tell me which of these two has the smaller EC50 figure? First: A Second: B State the label of the item chosen.
B
